Known IC50 (neutralization, TZM-bl pseudovirus assay) of a selection of binders
# target-entity: HIV-1 Env of isolate CAAN (clade B pseudovirus) (HIV-1)
# assay-procedure: cell-based or functional assay
reported-property: IC50 (neutralization, TZM-bl pseudovirus assay) (µg/mL)

INSERT INTO assay_data (binder, unit_tag, observed) VALUES
  ('1503_H05 (PG16) (TCN-119) (antibody, V domains shown) VH: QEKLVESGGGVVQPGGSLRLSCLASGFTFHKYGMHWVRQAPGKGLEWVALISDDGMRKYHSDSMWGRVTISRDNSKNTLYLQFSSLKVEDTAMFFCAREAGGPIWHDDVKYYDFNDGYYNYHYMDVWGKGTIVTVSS VL: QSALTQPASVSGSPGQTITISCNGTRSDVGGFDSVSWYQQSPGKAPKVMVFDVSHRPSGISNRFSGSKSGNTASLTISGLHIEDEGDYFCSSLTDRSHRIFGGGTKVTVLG', 'µg/mL', 13.5),
  ('1469_M23 (PG16) (TCN-118) (antibody, V domains shown) VH: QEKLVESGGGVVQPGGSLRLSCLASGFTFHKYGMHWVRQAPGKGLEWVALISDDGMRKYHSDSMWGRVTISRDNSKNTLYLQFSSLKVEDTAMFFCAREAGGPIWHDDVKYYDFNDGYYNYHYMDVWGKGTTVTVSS VL: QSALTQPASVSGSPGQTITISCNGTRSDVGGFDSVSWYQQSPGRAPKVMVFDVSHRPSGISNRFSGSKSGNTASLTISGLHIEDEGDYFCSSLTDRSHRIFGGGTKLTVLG', 'µg/mL', 17.7),
  ('1456_A12 (PG16) (TCN-117) (antibody, V domains shown) VH: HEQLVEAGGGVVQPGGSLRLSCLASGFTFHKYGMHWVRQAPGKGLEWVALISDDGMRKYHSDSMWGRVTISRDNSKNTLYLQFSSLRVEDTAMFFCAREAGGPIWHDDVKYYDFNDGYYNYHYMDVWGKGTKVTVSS VL: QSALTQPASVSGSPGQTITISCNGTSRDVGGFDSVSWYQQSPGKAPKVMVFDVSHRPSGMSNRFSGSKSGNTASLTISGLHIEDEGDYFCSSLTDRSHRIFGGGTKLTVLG', 'µg/mL', 10.6);
